B1: Cyanovirin-N, P81180 (parent)
chain: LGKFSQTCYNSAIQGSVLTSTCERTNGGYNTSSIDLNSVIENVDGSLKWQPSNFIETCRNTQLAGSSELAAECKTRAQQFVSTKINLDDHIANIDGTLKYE

Variants of: B1
Conditions: Nostoc ellipsosporum; pH 6; Thermal; CD; sodium phosphate 20 mM; transition: 2; reversible: yes(90%); structure 1IIY; whole UniProt chain shown
Reported Metric: Tm (°C)
Give the number; °C is assumed, so skip it.

{"columns": ["Sequence Entry", "Tm [°C]"],
 "data": [
  ["LGKFSQTCYNVAIQGSVLTATCERTNGGYNTSSIDLNSVIENVDGSLKWQGSNFIETCRNVQLAGSSELAAECKTRAQQFVSTKINLDDHIANIDGTLKYE", 74.5],
  ["LGKFSQTCYNAAIQGSVLTATCERTNGGYNTSSIDLNSVIENVDGSLKWQGSNFIETCRNIQLAGSSELAAECKTRAQQFVSTKINLDDHIANIDGTLKYE", 75.8],
  ["LGKFSQTCYNSAIQGSVLTSTCERTNGGYNTSSIDLNSVIENVDGSLKWQGSNFIETCRNTQLAGSSELAAECKTRAQQFVSTKINLDDHIANIDGTLKYE", 64.3]
]}

Ask | Given the variant `LGKFSQTCYNVAIQGSVLTATCERTNGGYNTSSIDLNSVIENVDGSLKWQGSNFIETCRNTQLAGSSELAAECKTRAQQFVSTKINLDDHIANIDGTLKYE` , what is its reported Tm?
Reply | 69.8

Ask | Given the variant `LGKFSQTCYNAAIQGSVLTATCERTNGGYNTSSIDLNSVIENVDGSLKWQGSNFIETCRNTQLAGSSELAAECKTRAQQFVSTKINLDDHIANIDGTLKYE` , what is its reported Tm?
Reply | 69.6
